Target of assay: anti-β1-ECII antibodies in rat sera preferentially reacting with the Cys/Ser mutated cyclopeptides (type1 reaction, n=64) (rat)
Test protocol: ELISA competition, type1 sera (n=64), linear 25AA Cys/Cys peptide as antigen
Bridge positions count the residues as written; N and C are the ends. Square brackets hold non-standard residues; d marks the D form.
Measurement label: blocking capacity (% of blocked versus non-blocked ELISA-reactivity) (%)

Examples with answers:
>>> recorded_number("cyclo(ARAESDEARRCYNDPKCCDFVTNRQ) (also: three Cys (11, 17, 18), disulfide pairing not defined) [3 Cys-containing β1-ECII-25AA Cys/Cys cyclopeptide]")
65
>>> recorded_number("cyclo(ADEARRCYNDPKSCDFV[dE]) (disulfide 7-14 (inferred)) [β1-ECII-18AA Ser/Cys cyclopeptide mutant with D-Glu ring closure (formula XII)]")
1
>>> recorded_number("cyclo(ADEARRCYNDPKCSDFVQ) (disulfide 7-13; SMILES CC(C)[C@@H]1NC(=O)[C@H](Cc2ccccc2)NC(=O)[C@H](CC(=O)O)NC(=O)[C@H](CO)NC(=O)[C@@H]2CSSC[C@H](NC(=O)[C@H](CCCNC(=N)N)NC(=O)[C@H](CCCNC(=N)N)NC(=O)[C@H](C)NC(=O)[C@H](CCC(=O)O)NC(=O)[C@H](CC(=O)O)NC(=O)[C@H](C)NC(=O)[C@H](CCC(N)=O)NC1=O)C(=O)N[C@@H](Cc1ccc(O)cc1)C(=O)N[C@@H](CC(N)=O)C(=O)N[C@@H](CC(=O)O)C(=O)N1CCC[C@H]1C(=O)N[C@@H](CCCCN)C(=O)N2) [ECII-18AA Cys/Ser mutant (Gln-)cyclopeptide (formula VI)]")
68
>>> recorded_number("cyclo(ADEARRCYNDPKCSDFV[dE]) (disulfide 7-13; SMILES CC(C)[C@@H]1NC(=O)[C@H](Cc2ccccc2)NC(=O)[C@H](CC(=O)O)NC(=O)[C@H](CO)NC(=O)[C@@H]2CSSC[C@H](NC(=O)[C@H](CCCNC(=N)N)NC(=O)[C@H](CCCNC(=N)N)NC(=O)[C@H](C)NC(=O)[C@H](CCC(=O)O)NC(=O)[C@H](CC(=O)O)NC(=O)[C@H](C)NC(=O)[C@@H](CCC(=O)O)NC1=O)C(=O)N[C@@H](Cc1ccc(O)cc1)C(=O)N[C@@H](CC(N)=O)C(=O)N[C@@H](CC(=O)O)C(=O)N1CCC[C@H]1C(=O)N[C@@H](CCCCN)C(=O)N2) [β1-ECII-18AA Cys/Ser cyclopeptide mutant with D-Glu ring closure (formula VIII)]")
69

I: cyclo(ARAESDEARRCYNDPKSCDFVTNRQ) (disulfide 11-18 (inferred)) [β1-ECII-25AA Ser/Cys mutant (Gln-)cyclopeptide (formula XI)]
II: cyclo(ADEARRCYNDPKSCDFVQ) (disulfide 7-14 (inferred)) [β1-ECII-18AA Ser/Cys mutant (Gln-)cyclopeptide (formula X)]
III: cyclo(ADEARRCYNDPKCCDFVQ) (also: three Cys (7, 13, 14), disulfide pairing not defined) [3 Cys-containing β1-ECII-18AA Cys/Cys cyclopeptide]
Q. Provide the items ranked by increasing blocking capacity (% of blocked versus non-blocked ELISA-reactivity). Respond with an ordered listing of the labels, as requested.
A. II, I, III
(II: 1%, I: 6%, III: 59%)
